target: recombinant soluble homotrimeric HA of A/Hong Kong/2108/03 (H9N2) (Influenza A virus A/Hong Kong/2108/2003 (H9N2)); test: HA microarray, BCC supernatant; conditions: remark: other sources report otherwise
value.kind: Trimeric HA Binding RLU

Input line: Tell me its Trimeric HA Binding RLU given TCN-540 (5060_F05) (antibody, V domains shown) VH: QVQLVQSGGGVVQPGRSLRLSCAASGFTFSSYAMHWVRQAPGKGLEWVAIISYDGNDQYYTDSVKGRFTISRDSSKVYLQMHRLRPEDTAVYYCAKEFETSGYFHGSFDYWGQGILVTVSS VL: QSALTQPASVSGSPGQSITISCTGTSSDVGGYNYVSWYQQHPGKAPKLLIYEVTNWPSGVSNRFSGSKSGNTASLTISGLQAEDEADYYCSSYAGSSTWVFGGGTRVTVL as the entry.
Output line: 22 RLU
